# credit: patent US11566007B2

Tested on: NCI-H358 (K-Ras G12C)
Test: CellTiter-Glo cell viability assay, NCI-H358
Format: cell-based, human
Settings: Homo sapiens, NCI-H358, 120 h, NCI-H358, 5-day treatment; class symbols; read-out: Additional H358 Cell Viability assay data (K-Ras G12C, IC50)
pIC50: −log10 of the molar value.
property-measured: pIC50

- compound: "C=CC(=O)N1CC[C@H](C(=O)N(C)[C@H](C(=O)N[C@H]2Cc3cc(O)cc(c3)-c3ccc4c(c3)c(c(-c3ccccc3[C@H](C)OC)n4CC)CC(C)(C)COC(=O)[C@@H]3CCCN(N3)C2=O)C(C)C)C1"
  system-under-test: "NCI-H358 (K-Ras G12C)"
  pIC50: "7.00 to 8.00"
- compound: "C=CC(=O)N(C)[C@@H]1C[C@H](C)N(C(=O)N(C)[C@H](C(=O)N[C@H]2Cc3nc(cs3)-c3ccc4c(c3)c(c(-c3cccnc3[C@H](C)OC)n4CC)CC(C)(C)COC(=O)[C@@H]3CCCN(N3)C2=O)C(C)C)C1 (atropisomer, axis not shown)"
  system-under-test: "NCI-H358 (K-Ras G12C)"
  pIC50: "7.00 to 8.00"
- compound: "C=CC(=O)N1CC[C@H](C(=O)N(C)[C@H](C(=O)N[C@H]2Cc3cc(C)cc(c3)-c3ccc4c(c3)c(c(-c3cccnc3[C@H](C)OC)n4CC)CC(C)(C)COC(=O)[C@@H]3CCCN(N3)C2=O)C(C)C)C1 (atropisomer, axis not shown)"
  system-under-test: "NCI-H358 (K-Ras G12C)"
  pIC50: "7.00 to 8.00"
- compound: "C=CC(=O)N1CC[C@H](C(=O)N2CC[C@H](C)[C@H]2C(=O)N[C@H]2Cc3cccc(c3)-c3ccc4c(c3)c(c(-c3cccnc3[C@H](C)OC)n4CC)CC(C)(C)COC(=O)[C@@H]3CCCN(N3)C2=O)C1 (atropisomer, axis not shown)"
  system-under-test: "NCI-H358 (K-Ras G12C)"
  pIC50: "6.00 to 7.00"
- compound: "C=CC(=O)N(C)C[C@H]1CCN1C(=O)N(C)[C@H](C(=O)N[C@H]1Cc2nc(cs2)-c2ccc3c(c2)c(c(-c2cccnc2[C@H](C)OC)n3CC)CC(C)(C)COC(=O)[C@@H]2CCCN(N2)C1=O)C(C)C (atropisomer, axis not shown)"
  system-under-test: "NCI-H358 (K-Ras G12C)"
  pIC50: "7.00 to 8.00"
- compound: "CC#CC(=O)N1CC[C@H](C(=O)N(C)[C@H](C(=O)N[C@H]2Cc3cccc(c3)-c3ccc4c(c3)c(c(-c3cccnc3[C@H](C)OC)n4CC)CC(C)(C)COC(=O)[C@@H]3CCCN(N3)C2=O)C2CCCC2)C1 (atropisomer, axis not shown)"
  system-under-test: "NCI-H358 (K-Ras G12C)"
  pIC50: "7.00 to 8.00"
- compound: "CCn1c(-c2cccnc2[C@H](C)OC)c2c3cc(ccc31)-c1csc(n1)C[C@H](NC(=O)[C@H](C)N(C)C(=O)[C@H]1CCN(C(=O)C#CC(C)(C)N3CCC3)C1)C(=O)N1CCC[C@H](N1)C(=O)OCC(C)(C)C2 (atropisomer, axis not shown)"
  system-under-test: "NCI-H358 (K-Ras G12C)"
  pIC50: "7.00 to 8.00"

Please find the next compound below.
Ask: Given C=CC(=O)N1CCC2(CCCN(C(=O)N(C)[C@H](C(=O)N[C@H]3Cc4nc(cs4)-c4ccc5c(c4)c(c(-c4cccnc4[C@H](C)OC)n5CC)CC(C)(C)COC(=O)[C@@H]4CCCN(N4)C3=O)C(C)C)C2)CC1 (atropisomer, axis not shown) , state its recorded pIC50.
Reply: 6.00 to 7.00
